Origin of measurements: paper PMC5540273

- System: PRKD1
- EXPERIMENTAL PARAMETERS: concentration: 1 μM, replicates: in singlicate; n = 1;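 also: KINOMEscan kinase panel screen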
REPORTED PROPERTY: %Inh (%)

COMPOUND: Cn1ccc2ncnc(Oc3cccc(C(=O)Nc4ccccc4)c3)c21
ASSAYED TARGET: PRKD1
REPORTED PROPERTY: %Inh
OBSERVED RESULT: 0
//
COMPOUND: CSc1nn2c(=O)cc(N3CCOCC3)nc2n1Cc1cccc(C(F)(F)F)c1C [GSK2363608]
ASSAYED TARGET: PRKD1
REPORTED PROPERTY: %Inh
OBSERVED RESULT: 0
//
COMPOUND: Cc1cc(-c2ccc3c(c2)CC[C@@H](N[C@@H](C)c2ccccc2)C3)cnc1N.Cl [GW412617]
ASSAYED TARGET: PRKD1
REPORTED PROPERTY: %Inh
OBSERVED RESULT: 18
//
COMPOUND: COc1cccc(NC(=O)NC2CCN(c3ccnc(Nc4ccc(F)cc4)n3)C2)c1 (stereo not shown) [GSK1379721]
ASSAYED TARGET: PRKD1
REPORTED PROPERTY: %Inh
OBSERVED RESULT: 0
//
COMPOUND: CS(=O)(=O)c1ccc(-c2c(-c3ncn[nH]3)sc(N3CCOCC3)c2C#N)cc1
ASSAYED TARGET: PRKD1
REPORTED PROPERTY: %Inh
OBSERVED RESULT: 19
//
COMPOUND: COc1ccc(CNC(=O)NC2CCN(c3ccnc(Nc4cc(OC)c(OC)c(OC)c4)n3)C2)cc1 (stereo not shown) [GSK1379748]
ASSAYED TARGET: PRKD1
REPORTED PROPERTY: %Inh
OBSERVED RESULT: 0
//
COMPOUND: O=S(=O)(c1ccc(-c2ccnc3[nH]ccc23)cc1)N1CCCC1 [GSK846226]
ASSAYED TARGET: PRKD1
REPORTED PROPERTY: %Inh
OBSERVED RESULT: 0

###

- Tested on: STK33
- EXPERIMENTAL PARAMETERS: concentration: 1 μM, replicates: in singlicate; n = 1
compounds and their reported %Inh
REPORTED PROPERTY: %Inh (%)

COMPOUND: Cc1c(O)cccc1Nc1ccnc2ccc(C(F)(F)F)cc12.Cl [GW466413]
ASSAYED TARGET: STK33
OBSERVED RESULT: 0
--
COMPOUND: CS(=O)(=O)c1ccc(-c2nc3n(c2-c2ccncc2)CCC3)cc1 [SKF-105942]
ASSAYED TARGET: STK33
OBSERVED RESULT: 0
--
COMPOUND: COc1ccc(Nc2nccc(-c3cccc(NC(=O)c4cc5cc(F)ccc5[nH]4)c3)n2)cc1 [GSK1229782]
ASSAYED TARGET: STK33
OBSERVED RESULT: 5
--
COMPOUND: O=C(Nc1ccccc1)Nc1cccc(Oc2ccc3nccn3n2)c1
ASSAYED TARGET: STK33
OBSERVED RESULT: 1
--
COMPOUND: Cc1cccc(-c2cc(Nc3ccncc3)c3ccccc3n2)n1 [GSK223675]
ASSAYED TARGET: STK33
OBSERVED RESULT: 0
--
COMPOUND: Cc1nnc(-c2ccc3occ(-c4ccc(S(C)=O)cc4)c3c2)[nH]1 (stereo not shown)
ASSAYED TARGET: STK33
OBSERVED RESULT: 0
--
COMPOUND: CC(=O)Nc1nc2cnc(Nc3cc(NC(=O)c4cccc(CCC#N)c4)ccc3C)nc2s1
ASSAYED TARGET: STK33
OBSERVED RESULT: 0
--
COMPOUND: COc1cc(Nc2nccc(N3CCC(NC(=O)Nc4cc(C)ccc4C)C3)n2)cc(OC)c1OC (stereo not shown) [GSK1379762]
ASSAYED TARGET: STK33
OBSERVED RESULT: 3
--
COMPOUND: CC1=C(C(=O)Nc2cc3cn[nH]c3cc2F)C(c2ccc(C(F)(F)F)cc2)CC(=O)N1 (stereo not shown) [GSK429286]
ASSAYED TARGET: STK33
OBSERVED RESULT: 0
--
COMPOUND: CCn1c(-c2cccnc2O)nc2cnccc21 [SB-736715]
ASSAYED TARGET: STK33
OBSERVED RESULT: 0
--
COMPOUND: O=c1cc(N2CCOCC2)nc2n(Cc3cccc(Cl)c3Cl)ccn12 [GSK2286295]
ASSAYED TARGET: STK33
OBSERVED RESULT: 0
--
COMPOUND: Cc1ccc(NC(=O)Nc2cc(C(C)(C)C)nn2-c2ccccc2)cc1 [GSK1014915]
ASSAYED TARGET: STK33
OBSERVED RESULT: 0
--
COMPOUND: Cc1cccc(-c2nc(C)cc(Nc3ccncc3)n2)n1 [GSK257997]
ASSAYED TARGET: STK33
OBSERVED RESULT: 0
--
COMPOUND: COc1cc2nccc(Nc3ccc(NC(=O)c4ccc(C)cc4)c(O)c3)c2cc1OC.Cl [GW440132]
ASSAYED TARGET: STK33
OBSERVED RESULT: 7
--
COMPOUND: Cc1csc(-c2nc(Nc3ccncc3)c3ccccc3n2)n1 [GW869640]
ASSAYED TARGET: STK33
OBSERVED RESULT: 18
--
COMPOUND: Clc1cc(Cl)cc(Nc2ccnc(Nc3cc(Cl)cc(Cl)c3)n2)c1 [GSK175726]
ASSAYED TARGET: STK33
OBSERVED RESULT: 0
--
COMPOUND: COC(=O)c1c(-c2ccccc2)c2cc(OC)ccc2c(=O)n1Cc1ccccc1
ASSAYED TARGET: STK33
OBSERVED RESULT: 0
--
COMPOUND: Cc1ccc(C(=O)Nc2ccc(Nc3ccnc4cc(-c5ccccn5)ccc34)cc2O)cc1.Cl [GW440146]
ASSAYED TARGET: STK33
OBSERVED RESULT: 0
--
COMPOUND: Cl.O=C(Nc1cccc(-c2nn3ncccc3c2-c2ccnc(Nc3cccnc3)n2)c1)c1c(F)cccc1F [GSK312879]
ASSAYED TARGET: STK33
OBSERVED RESULT: 0
--
COMPOUND: Nc1nc(-c2nccs2)c(-c2ccnc3ccccc23)s1 [GW693542]
ASSAYED TARGET: STK33
OBSERVED RESULT: 0
--
COMPOUND: Fc1cccc(COc2nnc(-c3ccc4c(c3)CCO4)o2)c1
ASSAYED TARGET: STK33
OBSERVED RESULT: 2
--
COMPOUND: COC(=O)c1c(-c2ccccc2)c2cc(C(=O)O)ccc2c(=O)n1Cc1ccccc1
ASSAYED TARGET: STK33
OBSERVED RESULT: 0
--
COMPOUND: COc1cccc(NC(=O)NC2CCN(c3ccnc(Nc4ccc(F)cc4)n3)C2)c1 (stereo not shown) [GSK1379721]
ASSAYED TARGET: STK33
OBSERVED RESULT: 0
--
COMPOUND: Cn1cncc1-c1ccc2ncnc(Nc3ccc(OCc4ccccc4)cc3)c2c1 [GW320571]
ASSAYED TARGET: STK33
OBSERVED RESULT: 20
--
COMPOUND: Fc1cc(Cl)ccc1Nc1ccnc2cc(I)ccc12 [GW551191]
ASSAYED TARGET: STK33
OBSERVED RESULT: 0
--
COMPOUND: Cc1cc(NCC(c2ccccc2)c2ccccc2)nc(NCc2ccc(C(F)(F)F)cc2)n1 [GW497681]
ASSAYED TARGET: STK33
OBSERVED RESULT: 0
--
COMPOUND: O=C(Nc1n[nH]c2cc(-c3cccc(F)c3F)ccc12)C1CC1 [SB-733894]
ASSAYED TARGET: STK33
OBSERVED RESULT: 0
--
COMPOUND: Cn1ccc2ncnc(Oc3ccc(Nc4nc5ccccc5[nH]4)cc3)c21
ASSAYED TARGET: STK33
OBSERVED RESULT: 0
